Where these numbers come from: the supplement of paper PMC10567573

So I've got a bunch of variants here, and I need their protein stability index values.
B1: DLC1 (parent)
chain: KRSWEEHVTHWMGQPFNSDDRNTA

Variants of: B1
Test: protein stability index of a GFP-peptide fusion (GPS, HEK-293T) (PSI 1-6); higher = more stable;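 note: lentivirally expressed fusions sorted by FACS into six bins by GFP to DsRed ratio, PSI derived from sequencing read proportions per bin multiplied by bin number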
Conditions: c terminus: a fixed tail appended
Numbers only.

Worked set:
KRSWEEHVTQWMGQPFNSDDRNTA [H10Q] ... 2.56
KRSWEEHVTHWMGPPFNSDDRNTA [Q14P] ... 2.84

Here's the next entry for you.
// field: protein stability index; key: KRSWEEHVTHWMGQPFNSDDRNRA [T23R] ; value = 2.65
